# ASSAY_METHOD_TEXT: 24 hour mouse pharmacokinetics
# Type: in vivo, B6SJLF1/J mice
# CONDITION_SET: B6SJLF1/J, plasma, PO 10 mg/kg, female
MEASURED_ENDPOINT: Tmax (h)
Record the value in h, omitting the unit from your answer.

Item under review: `Cn1c(C(=O)NCc2ccccc2F)cc2ccc(-c3cn[nH]c3)nc21` . Reported Tmax?
1

---

# Tested on: P-gp (MDR1)
# ASSAY_METHOD_TEXT: MDCK-MDR1 efflux assay, Experimental Procedure 1
# Format: in vitro ADME
# CONDITION_SET: dog, Table 3A, pH 7.4
MEASURED_ENDPOINT: efflux ratio at 2 h
Lab note: jot the number down without any unit.

Some solved cases for reference:
COMPOUND | MEASURED_ON | efflux ratio at 2 h
Cn1c(C(=O)NCc2ccccc2F)cc2ccc(-c3cn[nH]c3)nc21 | P-gp (MDR1) | 1.46
Cc1[nH]ncc1-c1ccc2cc(C(=O)NCc3c(Cl)cccc3OC3COC3)[nH]c2n1 [Comparator 3, reference compound] | P-gp (MDR1) | 256
Cc1[nH]ncc1-c1ccc2cc(C(=O)NCc3c(Cl)cccc3C3(O)CC3)[nH]c2n1 | P-gp (MDR1) | 133

Now look at this entry.
Which efflux ratio at 2 h is listed for C[C@H]1O[C@@H](O[C@H]2[C@@H](O)C[C@H](O[C@H]3[C@@H](O)C[C@H](O[C@H]4CC[C@@]5(C)[C@H](CC[C@@H]6[C@@H]5C[C@@H](O)[C@]5(C)[C@@H](C7=CC(=O)OC7)CC[C@]65O)C4)O[C@@H]3C)O[C@@H]2C)C[C@H](O)[C@@H]1O [Digoxin, reference compound] ?
28.4
